Where do the numbers come from? From patent US9284283B2.

- Assay System: UniProt Q16552
- Method: Surface Plasmon Resonance (SPR) analysis of compound interactions with IL17A
- Condition Set: SPR binding to IL17A
pKd: −log10 of the molar value.
Endpoint: pKd

Look up pKd for this molecule: COC(=O)[C@H]1CCCCNC(=O)CNC(=O)[C@@H](Cc2ccc(NC(=O)[C@H](Cc3ccccc3F)NC(=O)Cc3ccccc3)cc2)NC(=O)CC2(CCCC2)CC(=O)N1 [Compound 149] > 7.00

Here is the next molecule: CC1(C)CC(=O)NCCCCCNC(=O)CNC(=O)[C@@H](Cc2ccc(NC(=O)[C@H](Cc3ccccc3Cl)NC(=O)Cc3ccccc3)cc2)NC(=O)C1 [Compound 222] > 7.00

Here is the next molecule: O=C1CCNC(=O)[C@@H](Cc2ccc(NC(=O)[C@H](Cc3ccccc3Cl)NC(=O)Cc3ccccc3)cc2)NC(=O)CC2(CCCC2)CC(=O)N(CCO)CCCCCN1 [Compound 170] > 7.00

Here is the next molecule: COC(=O)[C@@H]1CCCCNC(=O)CCCNC(=O)[C@@H](Cc2ccc(NC(=O)[C@H](Cc3ccccc3)NC(=O)c3ccccc3)cc2)NC(=O)CC2(CCCC2)CC(=O)N1 [Compound 115] 6.00 to 7.00

Here is the next molecule: CC[C@H](C)[C@H](NC(=O)Cc1ccccc1)C(=O)Nc1ccc(C[C@H]2NC(=O)CC3(CCCC3)CC(=O)N[C@H](C(=O)OC)CCCCNC(=O)CCCNC2=O)cc1 [Compound 122] 5.00 to 6.00

Here is the next molecule: CC(=O)N[C@@H](Cc1ccccc1Cl)C(=O)Nc1ccc(C[C@H]2NC(=O)CC3(CCCC3)CC(=O)NCCCCNC(=O)CCNC2=O)cc1 [Compound 165] > 7.00

Here is the next molecule: COC(=O)[C@@H]1CCCCNC(=O)CCCNC(=O)[C@@H](Cc2ccc(NC(=O)[C@H](Cc3cccc(F)c3)NC(=O)Cc3ccccc3)cc2)NC(=O)CC2(CCCC2)CC(=O)N1 [Compound 116] 6.00 to 7.00

Here is the next molecule: COC(=O)[C@@H]1CCCCNC(=O)CCNC(=O)[C@@H](Cc2ccc(NC(=O)[C@H](Cc3ccccc3F)NC(=O)Cc3ccccc3)cc2)NC(=O)CC2(CCCC2)CC(=O)N1 [Compound 109] 6.00 to 7.00

Here is the next molecule: O=C1CCCNC(=O)[C@@H](Cc2ccc(NC(=O)[C@H](Cc3ccccc3Cl)NC(=O)Cc3ccccc3)cc2)NC(=O)CC2(CCCC2)CC(=O)NCCCCCN1 [Compound 161] > 7.00

Here is the next molecule: O=C1CNC(=O)[C@@H](Cc2ccc(NC(=O)[C@@H](NC(=O)Cc3ccccc3)C3CCCCC3)cc2)NC(=O)CC2(CCCC2)CC(=O)NCCCCCN1 [Compound 186] > 7.00

Here is the next molecule: COC(=O)[C@H]1CCCCNC(=O)CNC(=O)[C@@H](Cc2ccc(NC(=O)[C@H](Cc3ccccc3Cl)NC(=O)c3ccccc3)cc2)NC(=O)CC2(CCCC2)CC(=O)N1 [Compound 142] > 7.00

====

I'd be grateful if you could share measured IC50 for these entries.
- Assay System: biotinylated human IL-17 (binding to IL17R/Fc) (Homo sapiens, UniProt Q16552)
- Construct: 177-IR (IL17R/Fc)
- Method: IL-17 competition ELISA II (captured IL17R/Fc, biotinylated IL-17)

Look up IC50 for this molecule: O=C1CC2(CCCC2)CC(=O)N[C@H](Cc2ccc(NC(=O)[C@H](Cc3ccccc3Cl)NC(=O)C(=O)c3ccccc3)cc2)C(=O)NCCOCCOCCN1 < 100 nM

Here is the next molecule: CC(C)(C)[C@H]1NC(=O)[C@@H](Cc2ccc(NC(=O)[C@H](Cc3ccccc3Cl)NC(=O)C3(c4ccc(F)cc4)CC3)cc2)NC(=O)CC2(CCCC2)CC(=O)NCCCCCNC1=O 100 to 1000 nM

Here is the next molecule: NC(=O)c1ccccc1C[C@H]1NC(=O)[C@@H](Cc2ccc(NC(=O)[C@H](Cc3ccccc3Cl)NC(=O)Cc3ccc(CO)cc3)cc2)NC(=O)CC2(CCCC2)CC(=O)N[C@H](C(=O)O)CCCCNC1=O < 100 nM

Here is the next molecule: C[C@H]1NC(=O)[C@@H](Cc2ccc(NC(=O)[C@@H](NC(=O)C(F)(F)c3ccccc3)C3CCCCC3)cc2)NC(=O)CC2(CCCC2)CC(=O)N(C)CCCCCN(C)C1=O < 100 nM

Here is the next molecule: CN(C)CCOc1ccc(CC(=O)N[C@H](C(=O)Nc2ccc(C[C@H]3NC(=O)CC4(CCCC4)CC(=O)NCCCCCNC(=O)[C@@H](Cc4ccccc4)NC3=O)cc2)C2CCCCC2)cc1 100 to 1000 nM

====

- Assay System: biotinylated human IL-17 (binding to IL17R/Fc) (Homo sapiens)
- Construct: 177-IR (IL17R/Fc)
- Sequence (Q16552 20-155 limits assumed): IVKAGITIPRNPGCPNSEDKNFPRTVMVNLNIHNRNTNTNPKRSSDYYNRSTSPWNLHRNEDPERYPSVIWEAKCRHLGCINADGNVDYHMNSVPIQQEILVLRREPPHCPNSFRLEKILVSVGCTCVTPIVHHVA
- Method: IL-17 competition ELISA II (captured IL17R/Fc, biotinylated IL-17)
Endpoint: IC50

Look up IC50 for this molecule: O=C1CNC(=O)[C@H](Cc2ccc(NC(=O)[C@@H](Cc3ccccc3Cl)NC(=O)Cc3ccccc3)cc2)NC(=O)CC2(CCCC2)CC(=O)NCCCCCN1 1000 to 10000 nM

Here is the next molecule: CC(=O)N[C@@H](Cc1ccccc1Cl)C(=O)Nc1ccc(C[C@H]2NC(=O)CC3(CCCC3)CC(=O)OCCCCCNC(=O)CNC2=O)cc1 < 100 nM

Here is the next molecule: C[C@H]1NC(=O)[C@@H](Cc2ccc(NC(=O)[C@H](Cc3ccccc3Cl)NC(=O)Cc3ccccc3)cc2)NC(=O)CC2(CCCC2)CC(=O)NCCNCCNC1=O < 100 nM

Here is the next molecule: O=C1CNC(=O)[C@@H](Cc2ccc(NC(=O)[C@@H](NC(=O)c3ccc(Cl)cc3)C3CCCCC3)cc2)NC(=O)CC2(CCCC2)CC(=O)NCCCCCN1 < 100 nM

Here is the next molecule: C[C@H]1NC(=O)[C@@H](Cc2ccc(NC(=O)[C@H](Cc3ccccc3Cl)Nc3nc4ccccc4o3)cc2)NC(=O)CC2(CCCC2)CC(=O)N(C)CCOCCN(C)C1=O < 100 nM

Here is the next molecule: O=C1CC2(CCCC2)CC(=O)OCCCCCNC(=O)[C@@H](Cc2ccc(NC(=O)[C@@H](NC(=O)c3cccnc3)C3CCCCC3)cc2)N1 1000 to 10000 nM

Here is the next molecule: CN1CCOCCOCCNC(=O)[C@@H](Cc2ccc(NC(=O)[C@H](CC3CCC3)NC(=O)Cc3ccc(N(C)C)cc3)cc2)NC(=O)CC2(CCCC2)CC1=O < 100 nM

Here is the next molecule: O=C1CC2(CCCC2)CC(=O)N[C@H](Cc2ccc(NC(=O)[C@H](Cc3ccccc3Cl)NC(=O)Cc3ccccc3)cc2)C(=O)NCCCCCCN1 < 100 nM

Here is the next molecule: O=C1CNC(=O)[C@@H](Cc2ccc(NC(=O)[C@@H](NC(=O)c3cccc(F)c3)C3CCCCC3)cc2)NC(=O)CC2(CCCC2)CC(=O)NCCCCCN1 < 100 nM

Here is the next molecule: O=C1CC2(CCCC2)CC(=O)N[C@H](Cc2ccc(NC(=O)[C@H](Cc3ccccc3Cl)NC(=O)NCc3ccccc3)cc2)C(=O)NCCOCCOCCN1 < 100 nM

Here is the next molecule: O=C1CC2(CCCC2)CC(=O)N[C@H](Cc2ccc(NC(=O)[C@@H](NC(=O)Cc3ccc(CO)cc3)C3CCCCC3)cc2)C(=O)N[C@H](Cc2ccccc2)C(=O)NCCCCCN1 < 100 nM

====

- Assay System: biotinylated human IL-17 (binding to IL17R/Fc) (Homo sapiens, UniProt Q16552)
- Construct: 177-IR (IL17R/Fc)
- Method: IL-17 competition ELISA II (captured IL17R/Fc, biotinylated IL-17)
pIC50: −log10 of the molar value.
Endpoint: pIC50

Lab note: need pIC50 with biotinylated human IL-17 (binding to IL17R/Fc) (Homo sapiens, UniProt Q16552) for entry C[C@H]1NC(=O)[C@@H](Cc2ccc(NC(=O)[C@H](Cc3ccccc3Cl)NC(=O)Cc3ccc(N(C)C)cc3)cc2)NC(=O)CC2(CCCC2)CC(=O)N(C)CCOCCN(C)C1=O , please look it up. > 7.00

Here is the next molecule: O=C1CNC(=O)[C@@H](Cc2ccc(NC(=O)[C@H](Cc3ccccc3Cl)NC(=O)Cc3ccc(F)cc3)cc2)NC(=O)CC2(CCCC2)CC(=O)NCCCCCN1 > 7.00

Here is the next molecule: O=C1CC2(CCCC2)CC(=O)N[C@H](Cc2ccc(NC(=O)[C@@H](NC(=O)Cc3ccccc3)C3CCCCC3)cc2)C(=O)NCCCCCCCCCN1 6.00 to 7.00

Here is the next molecule: O=C1CNC(=O)[C@@H](Cc2ccc(NC(=O)[C@H](Cc3ccccc3Cl)NC(=O)Cc3c(F)cc(F)cc3F)cc2)NC(=O)CC2(CCCC2)CC(=O)NCCCCCN1 > 7.00

Here is the next molecule: O=C1CC2(CCCC2)CC(=O)N[C@H](Cc2ccc(NC(=O)[C@@H](NC(=O)Cc3ccccc3)C3CCCCC3)cc2)C(=O)NCCCCCCCN1 6.00 to 7.00

Here is the next molecule: O=C1CC2(CCCC2)CC(=O)N[C@H](Cc2ccc(NC(=O)[C@H](Cc3ccccc3Cl)NC(=O)Cc3ccc(CO)cc3)cc2)C(=O)NC/C=C/CCCCN1 > 7.00

Here is the next molecule: C[C@H]1NC(=O)[C@@H](Cc2ccc(NC(=O)[C@@H](NC(=O)Cc3ccc(CO)cc3)C3CCCCC3)cc2)NC(=O)CC2(CCCC2)CC(=O)NCCCCCNC1=O > 7.00

Here is the next molecule: CN1CCNC(=O)CC2(CCCC2)CC(=O)N[C@H](Cc2ccc(NC(=O)[C@H](Cc3ccccc3Cl)NC(=O)Cc3ccc(CO)cc3)cc2)C(=O)NCC1 > 7.00

Here is the next molecule: C[C@H]1NC(=O)[C@@H](Cc2cccc(NC(=O)[C@H](Cc3ccccc3Cl)NC(=O)Cc3ccc(F)cc3)c2)NC(=O)CC2(CCCC2)CC(=O)NCCCCCNC1=O 6.00 to 7.00

Here is the next molecule: O=C1CNC(=O)[C@@H](Cc2ccc(NC(=O)[C@H](Cc3ccccc3Cl)NC(=O)c3cccnc3)cc2)NC(=O)CC2(CCCC2)CC(=O)NCCCCCN1 > 7.00

Here is the next molecule: O=C1CC2(CCCC2)CC(=O)N[C@H](Cc2ccc(NC(=O)[C@H](Cc3ccccc3Cl)NC(=O)Cc3ccc(OCCN4CCOCC4)cc3)cc2)C(=O)N[C@H](Cc2ccccc2)C(=O)NCCCCCN1 > 7.00
